# experiment: Single ascending dose (SAD) pharmacokinetics in healthy volunteers
# Type: in vivo, human
# statedConditions: human, plasma, po, 150 mg, single oral dose 150 mg, plasma; read-out: AUCinf, mean (SD)

[
  {
    "structureSmilesString": "CC(=O)N1CCC(COc2cc(F)c3c(=O)[nH]c(CSC4CCOCC4)nc3c2)CC1",
    "AUC(0-inf) / µg·h/mL": 5.05
  }
]

---

# experiment: Single ascending dose (SAD) pharmacokinetics in healthy volunteers
# Assay type: in vivo, human
# statedConditions: human, plasma, po, 300 mg, single oral dose 300 mg, plasma; read-out: Cmax, geometric mean (Geo CV%)

[
  {
    "structureSmilesString": "CC(=O)N1CCC(COc2cc(F)c3c(=O)[nH]c(CSC4CCOCC4)nc3c2)CC1",
    "Cmax": "747 ng/mL"
  }
]

---

# System: CYP3A4
# experiment: clinical
# statedConditions: human, in vivo, po, Cmax, mean (SD), midazolam 2 mg single oral dose with RBN-3143 300 mg BID at steady state (day 16), N=12

[
  {
    "structureSmilesString": "Cc1ncc2n1-c1ccc(Cl)cc1C(c1ccccc1F)=NC2",
    "testedOn": "CYP3A4",
    "unitTag": "ng/mL",
    "Cmax": 9.76
  }
]

---

# experiment: Pantoprazole (PPI) effect on RBN-3143 pharmacokinetics, cross-over
# Assay type: in vivo, human
# statedConditions: human, plasma, po, 500 mg, single 500 mg oral dose, fasted without pantoprazole; read-out: AUCinf, mean (SD)

[
  {
    "compound": "CC(=O)N1CCC(COc2cc(F)c3c(=O)[nH]c(CSC4CCOCC4)nc3c2)CC1 [RBN‐3143]",
    "AUC(0-inf) (ng·h/mL)": 13800
  }
]

---

# experiment: Multiple ascending dose (MAD) pharmacokinetics in healthy volunteers, BID for 14 days
# Format: in vivo, human
# statedConditions: human, plasma, oral, 300 mg, 300 mg BID, Day 1, plasma; read-out: AUC12, geometric mean (Geo CV%)
assayEndpoint: AUC (ng·h/mL)

[
  {
    "molecule": "CC(=O)N1CCC(COc2cc(F)c3c(=O)[nH]c(CSC4CCOCC4)nc3c2)CC1 [RBN‐3143]",
    "reported": 5540
  }
]

---

# experiment: Single ascending dose (SAD) pharmacokinetics in healthy volunteers
# Assay type: in vivo, human
# statedConditions: human, plasma, po, 25 mg, single oral dose 25 mg, plasma; read-out: AUCinf, mean (SD)
assayEndpoint: AUC(0-inf) (ng·h/mL)

[
  {
    "molecule": "CC(=O)N1CCC(COc2cc(F)c3c(=O)[nH]c(CSC4CCOCC4)nc3c2)CC1 [RBN‐3143]",
    "unitTag": "ng·h/mL",
    "reported": 752
  }
]

---

# experiment: Multiple ascending dose (MAD) pharmacokinetics in healthy volunteers, BID for 14 days
# Assay type: in vivo, human
# statedConditions: human, plasma, oral, 500 mg, 500 mg BID, Day 1, plasma; read-out: t1/2, geometric mean (Geo CV%) (converted)
assayEndpoint: half-life

[
  {
    "structureSmilesString": "CC(=O)N1CCC(COc2cc(F)c3c(=O)[nH]c(CSC4CCOCC4)nc3c2)CC1",
    "reported": "4.38 h"
  }
]
